Test system: NCI-H460 tumor-bearing mice (lung cancer)
Test: Biodistribution: lutetium accumulation in tumor, plasma and healthy tissues by ICP-MS
Format: in vivo
Conditions: 0.5 mg/kg lutetium conjugate; plasma; 72 h
outcome measure: % ID/g uptake, Plasma, 72 h (% ID/g)
Provide only the numeric value, understood in % ID/g.

1) CCNC(=O)c1nnc(-c2cc(C(C)C)c(O)cc2O)n1-c1ccc(CN2CCN(C(=O)CCNC(=O)[C@@H](CCC(=O)N3CCN(Cc4ccc(-n5c(C(=O)NCC)nnc5-c5cc(C(C)C)c(O)cc5O)cc4)CC3)NC(=O)CCNC(=O)[C@@H](CCC(=O)O)NC(=O)[C@@H](CCC(=O)O)NC(=O)[C@@H](CCC(=O)O)NC(=O)COCCOCCNC(=O)[C@H](Cc3ccccc3)NC(=O)CNC(=O)CNC(=O)CC[C@H](C(=O)O)N3CCN4CCN5CCN(CC3)CC(=O)[O][Lu]([O]C(=O)C5)[O]C(=O)C4)CC2)cc1; 0.00
2) CCNC(=O)c1nnc(-c2cc(C(C)C)c(O)cc2O)n1-c1ccc2c(ccn2CCC2CCN(C(=O)CC[C@H](NC(=O)CC[C@H](C(=O)O)N3CCN4CCN5CCN(CC3)CC(=O)[O][Lu]([O]C(=O)C5)[O]C(=O)C4)C(=O)N3CCC(CCn4ccc5cc(-n6c(C(=O)NCC)nnc6-c6cc(C(C)C)c(O)cc6O)ccc54)CC3)CC2)c1; 0.37

Quick one: % ID/g uptake, Plasma, 72 h for CCNC(=O)c1nnc(-c2cc(C(C)C)c(O)cc2O)n1-c1ccc2c(ccn2CCC2CCN(C(=O)CCNC(=O)[C@@H](CCC(=O)O)NC(=O)[C@@H](CCC(=O)O)NC(=O)[C@@H](CCC(=O)O)NC(=O)COCCOCCNC(=O)[C@H](CCCCNC(=O)CC[C@H](C(=O)O)N3CCN4CCN5CCN(CC3)CC(=O)[O][Lu]([O]C(=O)C5)[O]C(=O)C4)NC(=O)CCCc3ccc(I)cc3)CC2)c1 ?
0.42

Quick one: % ID/g uptake, Plasma, 72 h for CCNC(=O)c1nnc(-c2cc(C(C)C)c(O)cc2O)n1-c1ccc(OC2CCN(C(=O)CCNC(=O)[C@@H](CCC(=O)N3CCC(Oc4ccc(-n5c(C(=O)NCC)nnc5-c5cc(C(C)C)c(O)cc5O)cc4)CC3)NC(=O)CC[C@H](C(=O)O)N3CCN4CCN5CCN(CC3)CC(=O)[O][Lu]([O]C(=O)C5)[O]C(=O)C4)CC2)cc1 ?
1.89

###

Test system: NCI-H460 tumor-bearing mice (lung cancer)
Experiment: Biodistribution: lutetium accumulation in tumor, plasma and healthy tissues by ICP-MS
Format: in vivo
Details: second table; tumor; 24 h
Measured Tumor uptake, % ID/g, 24 h, listed per entry for reference.
Provide only the numeric value, understood in % ID/g.

Record excerpt, results attached:
1. CCNC(=O)c1nnc(-c2cc(C(C)C)c(O)cc2O)n1-c1ccc(CC2CCN(C(=O)CCOCCOCCOCCOCCNC(=O)CN3CCN4CCN5CCN(CC3)CC(=O)[O][Lu]([O]C(=O)C4)[O]C(=O)C5)CC2)cc1; 4.20
2. CCNC(=O)c1nnc(-c2cc(C(C)C)c(O)cc2O)n1-c1ccc(C2CN(C(=O)CCOCCOCCOCCOCCNC(=O)CN3CCN4CCN5CCN(CC3)CC(=O)[O][Lu]([O]C(=O)C4)[O]C(=O)C5)C2)cc1; 2.45
3. CCNC(=O)c1nnc(-c2cc(C(C)C)c(O)cc2O)n1-c1ccc(CN2CCN(C(=O)C[C@H](NC(=O)CCNC(=O)[C@@H](CO)NC(=O)[C@@H](CO)NC(=O)[C@@H](CO)NC(=O)CC[C@H](C(=O)O)N3CCN4CCN5CCN(CC3)CC(=O)[O][Lu]([O]C(=O)C5)[O]C(=O)C4)C(=O)N[C@H](C)C(=O)N3CCN(Cc4ccc(-n5c(C(=O)NCC)nnc5-c5cc(C(C)C)c(O)cc5O)cc4)CC3)CC2)cc1; 4.64

Please examine the following record next.
Given the entry CC(C)c1cc(-c2nnc(O)n2-c2ccc(OC3CCN(C(=O)CCOCCOCCOCCOCCOCCOCCOCCOCCOCCOCCOCCOCCNC(=O)CN4CCN5CCN6CCN(CC4)CC(=O)[O][Lu]([O]C(=O)C5)[O]C(=O)C6)CC3)cc2)c(O)cc1O , what Tumor uptake, % ID/g, 24 h was observed with NCI-H460 tumor-bearing mice (lung cancer)?
0.57
